# measurement_protocol: Half life in Sprague-Dawley rat at 1 mg/kg, iv by LC-MS/MS analysis
# Format: ADME, organism-based
# experimental_conditions: in vivo
assay_endpoint: half-life
Returns: string containing the number followed by the unit.

Lookup: Consider the compound Cc1ccc(OC2CN(c3cccc(COC(=O)NC(=N)N)c3F)C2)cn1.O=C(O)C(O)C(O)C(=O)O and give its measured half-life.
Found: 3.3 h

---

# tested_target: CYP2C19 (Homo sapiens)
# Sequence (P33261 whole entry): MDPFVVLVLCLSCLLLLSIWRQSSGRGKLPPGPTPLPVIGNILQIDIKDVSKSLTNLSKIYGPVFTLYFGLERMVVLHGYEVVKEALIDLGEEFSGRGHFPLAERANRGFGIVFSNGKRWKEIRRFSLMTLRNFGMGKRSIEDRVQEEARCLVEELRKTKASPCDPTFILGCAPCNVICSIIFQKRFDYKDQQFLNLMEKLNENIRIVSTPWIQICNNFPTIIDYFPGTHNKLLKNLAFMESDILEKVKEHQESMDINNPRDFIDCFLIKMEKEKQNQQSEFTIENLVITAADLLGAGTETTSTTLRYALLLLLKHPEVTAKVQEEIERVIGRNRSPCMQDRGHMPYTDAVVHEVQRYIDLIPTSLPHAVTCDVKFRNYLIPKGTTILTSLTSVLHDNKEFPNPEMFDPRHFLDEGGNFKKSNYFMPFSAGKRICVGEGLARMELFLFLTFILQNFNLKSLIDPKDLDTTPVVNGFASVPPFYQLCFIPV
# measurement_protocol: Inhibition of CYP2C19 in human liver microsomes using S-mephenytoin as substrate assessed as residual activity at 5 uM after 20 mins by HPLC analysis
# Assay type: ADME
# experimental_conditions: probe S-mephenytoin, read-out: Activity
Provide the recorded activity at 20 min, 5 µM for the entries that follow.
Give bare numbers, in %.

Solved entries (count: 4):
test_smiles	reading
Cc1ncccc1OC1CN(c2cccc(COC(=O)NC(=N)N)c2F)C1.O=C(O)C(O)C(O)C(=O)O	91
N=C(N)NC(=O)OCc1cccc(N2CC(Oc3cccnc3)C2)c1F.N=C(N)NC(=O)OCc1cccc(N2CC(Oc3cccnc3)C2)c1F.O=C(O)C(O)C(O)C(=O)O	66
N=C(N)NC(=O)OCc1cccc(N2CCN(c3cccnc3)CC2)c1F.O=C(O)C(O)C(O)C(=O)O	96
N=C(N)NC(=O)OCc1cccc(-c2cnc(N3CCOCC3)nc2)c1.O=C(O)C(O)C(O)C(=O)O	102

# batch size: 4; output activity at 20 min, 5 µM per entry
1. Cl.Cl.Cl.N=C(N)NC(=O)OCc1cccc(N2CCN(c3ccncc3)CC2)c1
2. Cl.Cl.Cl.N=C(N)NC(=O)OCc1cccc(N2CCN(c3cccnc3)CC2)c1
3. N=C(N)NC(=O)OCc1cccc(N2CCC(Oc3cccnc3)CC2)c1F.O=C(O)C(O)C(O)C(=O)O
4. Cc1ccc(OC2CN(c3cccc(COC(=O)NC(=N)N)c3F)C2)cn1.O=C(O)C(O)C(O)C(=O)O

Found:
1: 91; 2: 99; 3: 96; 4: 99
